- assay_system: Toll-like receptor 2 (Homo sapiens, UniProt O60603)
- Sequence (O60603 whole entry): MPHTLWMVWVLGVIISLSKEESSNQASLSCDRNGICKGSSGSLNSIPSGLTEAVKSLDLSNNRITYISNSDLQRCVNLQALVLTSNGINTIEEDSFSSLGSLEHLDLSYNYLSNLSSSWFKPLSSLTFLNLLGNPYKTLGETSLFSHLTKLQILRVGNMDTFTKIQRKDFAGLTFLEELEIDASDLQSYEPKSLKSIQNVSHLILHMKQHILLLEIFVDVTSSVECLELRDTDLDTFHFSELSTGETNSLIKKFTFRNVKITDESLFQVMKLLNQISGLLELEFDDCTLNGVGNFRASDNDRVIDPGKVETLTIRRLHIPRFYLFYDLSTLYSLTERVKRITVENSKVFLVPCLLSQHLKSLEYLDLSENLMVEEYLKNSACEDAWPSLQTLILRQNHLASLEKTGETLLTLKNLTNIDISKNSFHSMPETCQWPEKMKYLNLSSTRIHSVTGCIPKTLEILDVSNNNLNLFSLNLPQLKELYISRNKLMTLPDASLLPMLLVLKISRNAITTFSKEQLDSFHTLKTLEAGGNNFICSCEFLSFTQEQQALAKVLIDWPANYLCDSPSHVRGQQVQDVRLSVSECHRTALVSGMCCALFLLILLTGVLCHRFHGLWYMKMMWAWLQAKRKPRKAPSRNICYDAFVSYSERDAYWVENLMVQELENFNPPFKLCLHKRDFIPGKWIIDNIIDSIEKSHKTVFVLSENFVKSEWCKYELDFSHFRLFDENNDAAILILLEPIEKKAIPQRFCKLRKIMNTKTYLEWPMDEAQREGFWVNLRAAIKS
- procedure_details: Agonist activity at human TLR2 expressed in HEK293 cells assessed as NF-kappaB induction measured soluble alkaline phosphatase after 12 hrs by spectrophotometric analysis
pEC50: −log10 of the molar value.
endpoint_name: pEC50

Challenge: For CCCCCCCCCCCCCCCC(=O)OC[C@H](CSCC[C@H](N)C(=O)N[C@@H](CO)C(=O)O)OC(=O)CCCCCCCCCCCCCCC , what is its reported pEC50?
Response given: < 6.00

Challenge: Similarly, CCCCCCCCCCCCCCCC(=O)OCCCSC[C@H](N)C(=O)N[C@@H](CO)C(=O)OC ?
Response given: < 6.00

Challenge: Cool, now CCCCCCCCCCCCCCCC(=O)OC[C@H](CSC(C)(C)[C@H](N)C(=O)N[C@@H](CO)C(=O)O)OC(=O)CCCCCCCCCCCCCCC
Response given: < 6.00
